Target Or Test System: Factor X, P00742
Sequence (P00742 whole entry, looked up): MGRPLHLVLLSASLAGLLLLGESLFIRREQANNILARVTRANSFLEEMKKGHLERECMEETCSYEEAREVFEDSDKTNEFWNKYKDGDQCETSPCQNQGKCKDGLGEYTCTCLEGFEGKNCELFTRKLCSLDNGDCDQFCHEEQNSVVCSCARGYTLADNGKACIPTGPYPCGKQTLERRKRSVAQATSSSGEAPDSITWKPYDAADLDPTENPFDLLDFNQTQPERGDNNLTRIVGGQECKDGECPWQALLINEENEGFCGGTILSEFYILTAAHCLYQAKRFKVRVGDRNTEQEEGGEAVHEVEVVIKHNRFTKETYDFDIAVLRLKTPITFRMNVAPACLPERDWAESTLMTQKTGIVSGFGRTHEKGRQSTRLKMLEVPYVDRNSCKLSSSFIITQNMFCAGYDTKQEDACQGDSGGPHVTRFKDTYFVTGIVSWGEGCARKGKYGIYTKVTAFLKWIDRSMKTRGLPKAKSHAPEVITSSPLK
Measured kcat, listed per entry.
Numeric answer only, unit s⁻¹ assumed.

FIXa-R318Y/R338E/R403E/E410N/T412V (protein) chain 1: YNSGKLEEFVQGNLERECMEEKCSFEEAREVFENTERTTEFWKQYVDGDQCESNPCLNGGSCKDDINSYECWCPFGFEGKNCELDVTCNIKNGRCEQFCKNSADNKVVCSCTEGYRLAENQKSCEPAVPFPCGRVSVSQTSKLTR chain 2: VVGGEDAKPGQFPWQVVLNGKVDAFCGGSIVNEKWIVTAAHCVETGVKITVVAGEHNIEETEHTEQKRNVIRIIPHHNYNAAINKYNHDIALLELDEPLVLNSYVTPICIADKEYTNIFLKFGSGYVSGWGRVFHKGYSALVLQYLRVPLVDRATCLESTKFTIYNNMFCAGFHEGGRDSCQGDSGGPHVTEVEGTSFLTGIISWGEECAMKGKYGIYTKVSEYVNWIKNKVKLT | 7.9

# evaluate next
Exercise: Returns the measured kcat for the input protein. Input: FIXa-Y155F/K247N/N249S/R318Y/R338E/T343R/R403E/E410N (protein) chain 1: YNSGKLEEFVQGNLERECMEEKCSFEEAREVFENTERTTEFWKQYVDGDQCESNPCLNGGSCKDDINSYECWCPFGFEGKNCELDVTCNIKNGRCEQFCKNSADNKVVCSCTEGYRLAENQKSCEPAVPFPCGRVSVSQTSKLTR chain 2: VVGGEDAKPGQFPWQVVLNGKVDAFCGGSIVNEKWIVTAAHCVETGVKITVVAGEHNIEETEHTEQNRSVIRIIPHHNYNAAINKYNHDIALLELDEPLVLNSYVTPICIADKEYTNIFLKFGSGYVSGWGRVFHKGYSALVLQYLRVPLVDRATCLESTKFRIYNNMFCAGFHEGGRDSCQGDSGGPHVTEVEGTSFLTGIISWGEECAMKGKYGIYTKVSEYVNWIKNKTKLT
Key: 9.7
